- Tested on: HEK293
- protocol.notes: IC50 for inhibition of ZIKV NS1 production
# if measured IC50 < 3000 nM: Satisfied  # else: Not satisfied

Problem: Please determine if OCCN1CCN(CCCN2c3ccccc3Sc3ccc(C(F)(F)F)cc32)CC1 is below 3000 nM in terms of IC50.
Solution: Not satisfied

More entries:
Problem: Please determine if COc1c(C)c2c(c(O)c1C/C=C(\C)CCC(=O)OCCN1CCOCC1)C(=O)OC2 is below 3000 nM in terms of IC50.
Solution: Satisfied

Problem: Please determine if Cc1cnc(NC(=O)Nc2cc(Br)c(C)cc2OC[C@@H]2CNCCO2)cn1 is below 3000 nM in terms of IC50.
Solution: Satisfied

Problem: Please determine if CC[C@H](CC#N)OC(=O)N[C@@H](C)c1cccc(NC(=O)Nc2ccc(-c3cnco3)c(OC)c2)c1 is below 3000 nM in terms of IC50.
Solution: Satisfied

Problem: Please determine if Cc1cc2c(F)c(Oc3ncnn4cc(OC[C@@H](C)O)c(C)c34)ccc2[nH]1 is below 3000 nM in terms of IC50.
Solution: Satisfied

Problem: Please determine if CC[C@]1(O)C[C@H]2CN(CCc3c([nH]c4ccccc34)[C@@](C(=O)OC)(c3cc4c(cc3OC)N(C=O)[C@H]3[C@@](O)(C(=O)OC)[C@H](OC(C)=O)[C@]5(CC)C=CCN6CC[C@]43[C@@H]65)C2)C1 is below 3000 nM in terms of IC50.
Solution: Satisfied

Problem: Please determine if COc1c(OCCCN2CCOCC2)ccc2c3n(c(=NC(=O)c4cnc(N)nc4)nc12)CCN3 is below 3000 nM in terms of IC50.
Solution: Satisfied

Problem: Please determine if COc1ccc(OC)c(-c2nnc3ccc(-c4ccc(OC)c(O[C@@H]5CCOC5)c4)nn23)c1 is below 3000 nM in terms of IC50.
Solution: Not satisfied

Problem: Please determine if C1CCC(C(CC2CCCCN2)C2CCCCC2)CC1 (stereo not given) is below 3000 nM in terms of IC50.
Solution: Not satisfied

Problem: Please determine if Cn1c(=O)n(-c2ccc(C(C)(C)C#N)cc2)c2c3cc(-c4cnc5ccccc5c4)ccc3ncc21 is below 3000 nM in terms of IC50.
Solution: Not satisfied

###

- Tested on: HEK293
- protocol.notes: cytotoxicity IC50 (ATP content, uninfected cells); higher = less cytotoxic
- recorded.conditions: infection: none
So I've got a bunch of molecules here, and I need their cytotoxicity IC50 values.
One number for each entry, in µM.

Worked cases, answers included:
Problem: Output measured cytotoxicity IC50 for this item: Nc1nc(F)nc2c1ncn2[C@@H]1O[C@H](CO)[C@@H](O)[C@H]1O
Solution: 11

Problem: Output measured cytotoxicity IC50 for this item: Nc1cc(C(F)(F)F)c(-c2cc(N3CCOCC3)nc(N3CCOCC3)n2)cn1
Solution: 2.3

More entries:
Problem: Output measured cytotoxicity IC50 for this item: COc1cc(NCc2ccc3nc(N)nc(N)c3c2C)cc(OC)c1OC
Solution: 2.2

The measured values listed here are drawn from the supplement of paper PMC8498969.
